All figures here come from the supplement of paper PMC12042874.

ASSAY_PROCEDURE: amyloid nucleation score (Sup35N fusion, yeast selection) (log enrichment); library NNK1; higher = more nucleation; inactive = no reads after selection;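 also: zero at mode of non-aggregating sequences after 7 days selection at 30°C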
METRIC_NAME: amyloid nucleation score

>>> val("LDNIMVCNYAE")
"inactive"
>>> val("HVSVRSLRAVGVLRRRCGNG")
"inactive"
>>> val("CEMMDNPFLLLRVKGSKVRS")
"inactive"
